tested on: human lymphoma cell line Raji; assay: Caspase cascade activation in Raji cells; assay type: cell-based; settings: RAJ1 cells, 48 h incubation, read-out: caspase potency EC50 RAJ1
Can you tell me EC50 for the items I'm about to list?
Numeric answer only, unit nM assumed.

-- ask // lookup EC50 | system=human lymphoma cell line Raji | key= COc1ccccc1-c1nnc2sc(-c3ccc(Br)cc3)nn12
-- reply 501

-- ask Hi! What's the reported EC50 for COc1ccccc1-c1nnc2sc(-c3cc4ccccc4o3)nn12 on human lymphoma cell line Raji?
-- reply 198

-- ask Please provide the recorded EC50 for Clc1ccccc1-c1nnc2sc(-c3ccc4c(c3)OCCO4)nn12 , tested on human lymphoma cell line Raji.
-- reply 688

-- ask I'm curious: which EC50 was measured for Cc1cccc(-c2nn3c(-c4ccc(Cl)cc4Cl)nnc3s2)c1 tested on human lymphoma cell line Raji?
-- reply 505

-- ask Which EC50 is reported with human lymphoma cell line Raji for this entry: COc1ccc(-c2nn3c(-c4ccccc4C)nnc3s2)cc1OC ?
-- reply 274
